These entries and their values trace back to ChEMBL document CHEMBL3351733.

A short record of IC50 observed with UniProt:Q9Y2R2 follows.
Sequence (Q9Y2R2 whole entry): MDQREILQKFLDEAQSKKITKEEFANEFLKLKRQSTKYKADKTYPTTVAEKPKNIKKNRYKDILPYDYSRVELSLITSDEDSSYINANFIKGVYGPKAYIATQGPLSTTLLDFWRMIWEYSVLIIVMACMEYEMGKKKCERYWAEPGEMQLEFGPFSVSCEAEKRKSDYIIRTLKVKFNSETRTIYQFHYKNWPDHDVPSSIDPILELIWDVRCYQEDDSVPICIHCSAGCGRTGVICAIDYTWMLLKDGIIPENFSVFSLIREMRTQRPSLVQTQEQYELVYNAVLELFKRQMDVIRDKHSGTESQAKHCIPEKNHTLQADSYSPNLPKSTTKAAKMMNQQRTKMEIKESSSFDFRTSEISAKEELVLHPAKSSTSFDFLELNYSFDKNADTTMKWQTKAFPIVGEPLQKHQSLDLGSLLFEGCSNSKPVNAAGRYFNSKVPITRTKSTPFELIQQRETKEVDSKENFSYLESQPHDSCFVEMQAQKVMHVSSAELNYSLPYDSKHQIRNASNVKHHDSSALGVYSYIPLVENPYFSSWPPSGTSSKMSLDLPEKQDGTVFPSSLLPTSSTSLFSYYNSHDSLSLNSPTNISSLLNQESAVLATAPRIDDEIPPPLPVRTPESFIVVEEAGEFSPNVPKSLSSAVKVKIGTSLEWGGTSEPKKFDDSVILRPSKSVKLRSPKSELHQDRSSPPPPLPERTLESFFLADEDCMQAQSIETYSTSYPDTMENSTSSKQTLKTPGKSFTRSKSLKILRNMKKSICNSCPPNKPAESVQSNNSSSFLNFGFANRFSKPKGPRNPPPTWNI
One number for each entry, in nM.

Dear colleague, could you please provide IC50 for the molecules listed below?
1. Oc1ccc2ccccc2c1O
2. O=C1C=C(O)C(=O)c2ccccc21
3. O=C1C=Cc2ccccc2C1=O

Output:
1: 2520; 2: 5600; 3: 1100
